TARGET OR TEST SYSTEM: Poly [ADP-ribose] polymerase tankyrase-1 (Homo sapiens)
Sequence (O95271 whole entry): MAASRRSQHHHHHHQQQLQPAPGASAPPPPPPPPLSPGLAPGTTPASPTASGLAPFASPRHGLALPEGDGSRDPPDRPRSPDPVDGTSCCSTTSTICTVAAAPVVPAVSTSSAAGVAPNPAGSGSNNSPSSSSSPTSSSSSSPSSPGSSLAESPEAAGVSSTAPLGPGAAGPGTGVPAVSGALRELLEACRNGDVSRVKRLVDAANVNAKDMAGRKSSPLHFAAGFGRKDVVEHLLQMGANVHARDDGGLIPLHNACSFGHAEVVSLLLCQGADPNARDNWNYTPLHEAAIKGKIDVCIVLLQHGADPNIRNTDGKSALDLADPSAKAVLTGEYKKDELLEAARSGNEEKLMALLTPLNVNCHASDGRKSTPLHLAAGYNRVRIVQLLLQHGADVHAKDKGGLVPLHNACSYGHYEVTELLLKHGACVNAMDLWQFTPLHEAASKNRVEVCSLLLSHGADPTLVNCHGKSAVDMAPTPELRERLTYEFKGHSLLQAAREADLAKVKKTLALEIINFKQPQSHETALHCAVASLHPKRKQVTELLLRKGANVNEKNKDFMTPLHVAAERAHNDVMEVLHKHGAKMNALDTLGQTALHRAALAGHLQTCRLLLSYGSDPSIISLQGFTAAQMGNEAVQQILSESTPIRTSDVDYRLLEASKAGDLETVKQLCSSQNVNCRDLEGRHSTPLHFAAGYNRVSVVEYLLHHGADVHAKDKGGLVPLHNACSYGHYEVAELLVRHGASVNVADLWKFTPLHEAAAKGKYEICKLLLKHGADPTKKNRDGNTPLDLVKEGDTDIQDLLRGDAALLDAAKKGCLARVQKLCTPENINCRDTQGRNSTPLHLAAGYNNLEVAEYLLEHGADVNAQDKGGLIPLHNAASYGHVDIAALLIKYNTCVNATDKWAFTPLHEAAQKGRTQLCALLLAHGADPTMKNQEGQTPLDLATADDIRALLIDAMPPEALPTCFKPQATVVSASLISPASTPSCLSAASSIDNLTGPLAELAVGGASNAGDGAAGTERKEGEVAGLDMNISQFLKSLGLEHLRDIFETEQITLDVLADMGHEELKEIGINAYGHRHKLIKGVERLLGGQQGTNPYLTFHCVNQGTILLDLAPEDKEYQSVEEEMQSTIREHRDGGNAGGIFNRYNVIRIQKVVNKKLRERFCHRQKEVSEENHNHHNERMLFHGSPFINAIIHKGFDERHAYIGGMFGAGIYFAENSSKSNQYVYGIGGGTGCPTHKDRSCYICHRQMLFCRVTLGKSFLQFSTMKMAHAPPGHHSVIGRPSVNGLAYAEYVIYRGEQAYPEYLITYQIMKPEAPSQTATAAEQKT
pIC50: −log10 of the molar value.
Literature survey of pIC50 (system: Poly [ADP-ribose] polymerase tankyrase-1 (Homo sapiens)).
READOUT NAME: pIC50

Reference set, count: 3
Cc1c(C(N)=O)ccc2c1c(=O)n(C[C@H]1CC[C@H](C(=O)Nc3ccncc3)CC1)c(=O)n2Cc1cccc(C(F)(F)F)c1C#N; 7.60
O=c1[nH]c(-c2ccccc2)cc2ccncc12; 5.89
Cn1nc(-c2ccc(NC(=O)CCc3nc4ccccc4c(=O)[nH]3)cc2)c2ccccc21; 6.40

[I] CC(C)(C)c1ccc(C2NC(=O)c3ccccc3N2)cc1 (centres undefined)
[II] O=c1[nH]c(CN(Cc2cccs2)S(=O)(=O)Cc2ccccc2)nc2c1COCC2
[III] CN1CCCc2c1nc(N1CCC3(CC1)C(=O)N(CC(=O)O)c1cc(F)cc(F)c13)[nH]c2=O
[IV] CN1CCCc2c1nc(N1CCC3(CC1)C(=O)N(C)c1cc(F)cc(F)c13)[nH]c2=O
[V] CN1CCCc2c1nc(N1CCC3(CC1)C(=O)N(C)c1cc(N4CCOCC4)cc(F)c13)[nH]c2=O
Prompt: hey, can you rank those compounds up there by pIC50? biggest number first please Thanks in advance for listing the labels in the requested order.
Response: IV, V, III, I, II

[A] O=c1[nH]c(N2CCC3(CC2)CNc2cc(Cl)cc(Cl)c23)nc2c1CCCC2
[B] COc1ccc(N2CCN(c3nc4c(c(=O)[nH]3)CCCC4)CC2)cc1
[C] CN1CCCc2c1nc(N1CCC3(CC1)C(=O)N(CC(F)(F)F)c1cc(F)cc(F)c13)[nH]c2=O
[D] Cc1cccc2c1c(=O)n(C[C@H]1CC[C@H](C(=O)Nc3cnn(C)c3)CC1)c(=O)n2Cc1cccc(C(F)(F)F)c1C#N
[E] Cc1cccc2c(=O)[nH]c(-c3ccc(CNC(=O)OCc4ccccc4)cc3)nc12
Prompt: Rank items: key pIC50, increasing. Thanks in advance for listing the labels in the requested order.
Response: E, B, C, A, D

[P] COc1cccc(N2CCN(c3nc4c(c(=O)[nH]3)CSCC4)CC2)c1
[Q] O=C(CCC1CCCCC1)Nc1nnc2n1CCS2
[R] Cc1cccc2c1c(=O)n(C[C@H]1CC[C@H](C(=O)Nc3ccnnc3)CC1)c(=O)n2Cc1cccc(C(F)(F)F)c1C#N
Prompt: hey, can you rank those compounds up there by pIC50? biggest number first please Thanks in advance for listing the labels in the requested order.
Response: R, P, Q

[a] Cc1ccc2c(c1C)c(=O)n(C[C@H]1CC[C@H](C(=O)Nc3ccncc3)CC1)c(=O)n2Cc1cccc(C(F)(F)F)c1C#N
[b] Cc1cccc2c1c(=O)n(C[C@H]1CC[C@H](C(=O)Nc3ccncc3)CC1)c(=O)n2Cc1ccccc1C#N
Prompt: For the pair a and b , which entry has the numerically smaller recorded pIC50? Kindly state the label of the option you pick.
Response: a
